Source of measurements: patent US12448394B2

Please provide measured IC50 for the entries that follow.
# Test system: MV4-11 human acute myeloid leukemia cell with FLT3-ITD mutation
# testSummary: MV4-11 cell proliferation assay (CellTiter 96)
# Assay type: cell-based
# recordedConditions: Homo sapiens, MV4-11, 72 h, MV4-11 cells, 72 hours treatment, CellTiter96; read-out: anti-proliferation activity MV4-11 (FLT3-ITD), IC50 ranking

Okay, here is my list. What is IC50 for each of these?
1. C[C@H]1COCCN1Cc1ccc(-c2cc3c(s2)Cc2c(-c4ccc5cnn(C)c5c4)n[nH]c2-3)cc1 [Compound 75]
2. Cn1ncc2ccc(-c3n[nH]c4c3Cc3sc(-c5ccc(CN6CCOCC6)cc5OC(F)(F)F)cc3-4)cc21 [Compound 90]
3. Cn1ncc2ccc(-c3n[nH]c4c3Cc3sc(-c5ccc(CN6CCC(F)(F)C6)cc5)cc3-4)cc21 [Compound 67]
4. Cn1ncc2ccc(-c3n[nH]c4c3Cc3sc(-c5cc(F)c(CN6CCOCC6)c(F)c5)cc3-4)cc21 [Compound 53]
5. Nc1ccc(-c2cc3c(s2)Cc2c(-c4ccc5cn[nH]c5c4)n[nH]c2-3)cn1 [Compound 3]
6. c1cc(CN2CCOCC2)ncc1-c1cc2c(s1)Cc1c(-c3ccc4cn[nH]c4c3)n[nH]c1-2 [Compound 18]
7. Cn1ncc2ccc(-c3n[nH]c4c3Cc3sc(C5CCN(C(=O)CN6CCOCC6)CC5)cc3-4)cc21 [Compound 98]

1: < 0.03 µM; 2: 0.3 to 1 µM; 3: 0.1 to 0.3 µM; 4: 0.03 to 0.1 µM; 5: < 0.03 µM; 6: < 0.03 µM; 7: < 0.03 µM

###

Please provide measured pIC50 for the entries that follow.
# testedTarget: FLT3 kinase (Homo sapiens)
# Construct: purchased SignalChem
# testSummary: FLT3 kinase assay (AlphaScreen)
# Assay type: biochemical
# recordedConditions: read-out: Ranking of IC50 values, FLT3
pIC50: −log10 of the molar value.

Consider the worked cases shown below.
* c1cc(-c2cc3c(s2)Cc2c(-c4ccc5cn[nH]c5c4)n[nH]c2-3)ccc1CN1CCOCC1 [Compound 6] | > 9.00
* Cn1ncc2ccc(-c3n[nH]c4c3Cc3sc(-c5ccc(S(=O)(=O)N6CCOCC6)cc5)cc3-4)cc21 [Compound 47] | > 9.00
* CN1CCN(Cc2cccc(-c3cc4c(s3)Cc3c(-c5ccc6cnn(C)c6c5)n[nH]c3-4)c2)CC1 [Compound 14] | 8.00 to 9.00

Okay, next one:
Param item: Cn1ncc2ccc(-c3n[nH]c4c3Cc3sc(-c5ccc(CN6CCCCC6=O)cc5)cc3-4)cc21 [Compound 61] ; param system: FLT3 kinase (Homo sapiens); output pIC50: 8.00 to 9.00

###

Measured IC50 (PDGFRα kinase (Homo sapiens, UniProt P16234))

Consider the worked cases shown below.
• Cn1ncc2ccc(-c3n[nH]c4c3Cc3sc(-c5cnc(C(=O)N6CCOCC6)nc5)cc3-4)cc21 [Compound 41] = 10 to 30 nM
• Cc1n[nH]c2cc(-c3n[nH]c4c3Cc3sc(-c5ccc(CN6CCOCC6)cc5)cc3-4)ccc12 [Compound 81] = 1 to 10 nM
• Cn1ncc2ccc(-c3n[nH]c4c3Cc3sc(-c5csc(C(=O)N6CCOCC6)c5)cc3-4)cc21 [Compound 48] = 1 to 10 nM
• Cc1ccc(-c2cc3c(s2)Cc2c(-c4ccc5[nH]ncc5c4)n[nH]c2-3)cn1 [Compound 36] = 1 to 10 nM

Okay, next one:
Consider Cn1ncc2ccc(-c3n[nH]c4c3Cc3sc(C5=CCN(C(=O)N6CCOCC6)CC5)cc3-4)cc21 [Compound 57] . Its measured IC50 is 10 to 30 nM

###

Measured IC50 (PDGFRα kinase (Homo sapiens, UniProt P16234))

Consider the worked cases shown below.
* CN(C)C(=O)c1ccc(-c2cc3c(s2)Cc2c(-c4ccc5cnn(C)c5c4)n[nH]c2-3)cc1 | 1 to 10 nM
* CN1CCN(c2ccc(-c3cc4c(s3)Cc3c(-c5ccc6cnn(C)c6c5)n[nH]c3-4)cn2)CC1 | 1 to 10 nM
* COc1ccc(-c2cc3c(s2)Cc2c(-c4ccc5cnn(C)c5c4)n[nH]c2-3)cn1 | 10 to 30 nM
* Cn1nnc2ccc(-c3n[nH]c4c3Cc3sc(-c5ccc(CN6CCOCC6)cc5)cc3-4)cc21 | 1 to 10 nM

Okay, here is my list. What is IC50 for each of these?
1. CN(C)S(=O)(=O)c1ccc(-c2cc3c(s2)Cc2c(-c4ccc5cnn(C)c5c4)n[nH]c2-3)cc1
2. COC1CN(Cc2ccc(-c3cc4c(s3)Cc3c(-c5ccc6cnn(C)c6c5)n[nH]c3-4)cc2)C1
3. Cn1ncc2ccc(-c3n[nH]c4c3Cc3sc(-c5ccc(CN6CCC6)cc5)cc3-4)cc21

["10 to 30 nM", "1 to 10 nM", "1 to 10 nM"]

###

# testedTarget: FLT3 kinase (Homo sapiens)
# Construct: purchased SignalChem
# testSummary: FLT3 kinase assay (AlphaScreen)
# Format: biochemical
# recordedConditions: read-out: Ranking of IC50 values, FLT3
Please provide measured IC50 for the entries that follow.

Consider the worked cases shown below.
- Cn1ncc2ccc(-c3n[nH]c4c3Cc3sc(C#CCN5CCOCC5)cc3-4)cc21: 1 to 10 nM
- Cn1ncc2ccc(-c3n[nH]c4c3Cc3sc(-c5cnc(N)nc5)cc3-4)cc21: < 1 nM
- COc1cc(-c2cc3c(s2)Cc2c(-c4ccc5cnn(C)c5c4)n[nH]c2-3)ccc1C(=O)N1CCOCC1: 1 to 10 nM

Okay, here is my list. What is IC50 for each of these?
1. CN(c1ccc(-c2cc3c(s2)Cc2c(-c4ccc5cnn(C)c5c4)n[nH]c2-3)cc1)C1CCOCC1
2. Cc1cc(-c2cc3c(s2)Cc2c(-c4ccc5cnn(C)c5c4)n[nH]c2-3)ccn1
3. CN1CCN(c2cc(-c3cc4c(s3)Cc3c(-c5ccc6cnn(C)c6c5)n[nH]c3-4)ccn2)CC1

["1 to 10 nM", "1 to 10 nM", "< 1 nM"]

Okay, here is my list. What is IC50 for each of these?
1. Cn1ncc2ccc(-c3n[nH]c4c3Cc3sc(-c5ccc(CN6CCOCC6)cc5OC(F)(F)F)cc3-4)cc21
2. Cn1ncc2ccc(-c3n[nH]c4c3Cc3sc(-c5ccc(C(=O)N6CCOCC6)nc5)cc3-4)cc21

1: 1 to 10 nM; 2: < 1 nM

###

Please provide measured pIC50 for the entries that follow.
# testedTarget: FLT3-D835Y mutant kinase (Homo sapiens, UniProt P36888, D835Y)
# Construct: purchased SignalChem
# testSummary: FLT3-D835Y mutant kinase assay (AlphaScreen)
# Type: biochemical
# recordedConditions: read-out: Ranking of IC50 values, FLT3-D835Y
# Method: Inhibition of FLT3-D835Y mutant kinase activity by a test compound disclosed herein was estimated by AlphaScreen (PerkinElmer). […] Analysis of resulting product using an AlphaScreen kit and counted with Enspire Alpha (PerkinElmer). […] The IC50 values of inhibitors were determined after carrying out assays with each compound at serially diluted concentrations in duplication. The results were analyzed using linear regression software (GraphPad Prism 5; GraphPad Software Inc.)
pIC50: −log10 of the molar value.

- Cn1ncc2ccc(-c3n[nH]c4c3Cc3sc(C5CCN(C(=O)CN6CCOCC6)CC5)cc3-4)cc21: > 9.00
- Cn1ncc2ccc(-c3n[nH]c4c3Cc3sc(-c5ccc(CN6CCOCC6)nc5)cc3-4)cc21: > 9.00

Okay, here is my list. What is pIC50 for each of these?
1. Cn1ncc2ccc(-c3n[nH]c4c3Cc3sc(-c5ccc(CN6CCOCC6)c(F)c5)cc3-4)cc21
2. c1cc(CN2CCOCC2)ncc1-c1cc2c(s1)Cc1c(-c3ccc4cn[nH]c4c3)n[nH]c1-2
3. Cn1ncc2ccc(-c3n[nH]c4c3Cc3sc(-c5csc(CN6CCOCC6)c5)cc3-4)cc21
4. Cn1ncc2ccc(-c3n[nH]c4c3Cc3sc(-c5ccc(CN6CCOCC6)c(F)c5F)cc3-4)cc21
5. CN1CCN(Cc2ccc(-c3cc4c(s3)Cc3c(-c5ccc6cnn(C)c6c5)n[nH]c3-4)cc2)CC1

8.00 to 9.00
8.00 to 9.00
> 9.00
8.00 to 9.00
> 9.00

###

# testedTarget: FLT3 kinase (Homo sapiens, UniProt P36888)
# Construct: purchased SignalChem
# testSummary: FLT3 kinase assay (AlphaScreen)
# Format: biochemical
# recordedConditions: read-out: Ranking of IC50 values, FLT3
Please provide measured IC50 for the entries that follow.

- Cn1ncc2ccc(-c3n[nH]c4c3Cc3sc(-c5ccc(C(=O)N6CCCC6)cc5)cc3-4)cc21: 1 to 10 nM

Okay, here is my list. What is IC50 for each of these?
1. Cn1ncc2ccc(-c3n[nH]c4c3Cc3sc(-c5cc(F)c(CN6CCOCC6)c(F)c5)cc3-4)cc21
2. Cc1n[nH]c2cc(-c3n[nH]c4c3Cc3sc(-c5ccc(CN6CCOCC6)cc5)cc3-4)ccc12
3. Cn1ncc2ccc(-c3n[nH]c4c3Cc3sc(-c5ccc(CN6CCCOCC6)cc5)cc3-4)cc21
4. Cn1ncc2ccc(-c3n[nH]c4c3Cc3sc(C5CCN(C(=O)CN6CCOCC6)CC5)cc3-4)cc21
5. Cn1ncc2ccc(-c3n[nH]c4c3Cc3sc(-c5ccc(NC6CCOCC6)cc5)cc3-4)cc21
6. CN(C)Cc1ccc(-c2cc3c(s2)Cc2c(-c4ccc5cnn(C)c5c4)n[nH]c2-3)cn1

["< 1 nM", "1 to 10 nM", "< 1 nM", "< 1 nM", "1 to 10 nM", "1 to 10 nM"]
